System: Total ATXN3 (tATXN3) protein
Test: Endogenous Total ATXN3 (tATXN3) Protein Assay (MSD immunoassay of cell lysates)
Type: cell-based
Details: average IC50, total ATXN3 protein in cell lysate after 48 h with compound (Table 1)
pIC50: −log10 of the molar value.
For each of the molecules below, state its pIC50.

I am curious: what pIC50 value has been reported for N[C@@H]1CCCC(F)(F)[C@@H]1c1sc2c(NCc3cccs3)cc(Cl)nc2c1Br.N[C@H]1CCCC(F)(F)[C@H]1c1sc2c(NCc3cccs3)cc(Cl)nc2c1Br (mixture of isomers) ?
6.52 to 7.52

Could you do the same for C#Cc1c([C@@H]2CCCC[C@H]2N)sc2c(NCc3ccccc3)cc(Cl)nc12 , please?
6.52 to 7.52

Moving on to CCc1c([C@@H]2CCCCC[C@H]2N)sc2c(NCc3cccs3)cc(Cl)nc12 (single isomer, unassigned)
< 6.00

====

Test system: Total ATXN3 (tATXN3) protein
Experiment: Endogenous Total ATXN3 (tATXN3) Protein Assay (MSD immunoassay of cell lysates)
Type: cell-based
Conditions: average IC50, total ATXN3 protein in cell lysate after 48 h with compound (Table 1)
pIC50: −log10 of the molar value.
Please go through the items and note down their pIC50.

// pIC50 lookup, key: Cc1c([C@@H]2CCCCC[C@@H]2N)sc2c(NCc3cccs3)cc(Cl)nc12
6.00 to 6.52

Subsequent entry: N[C@H]1CC=CC[C@@H]1c1sc2c(NCc3ccccc3)nc(Cl)nc2c1Cl
6.52 to 7.52

And what about the compound N[C@H]1CC=CC[C@@H]1c1sc2c(NCc3ccco3)cc(Cl)nc2c1I ?
≥ 7.52

Cool, now N[C@@H]1CCOC[C@H]1c1sc2c(NCc3ccccc3)cc(Cl)nc2c1Cl
6.52 to 7.52

Continue with Cc1c([C@H]2CCCCC[C@H]2N)sc2c(NCc3cccs3)cc(Cl)nc12
< 6.00

Param item: N[C@@H]1CCCC[C@H]1c1sc2c(NCc3ccncc3)cc(Cl)nc2c1Br
6.52 to 7.52

Please give the result for N[C@H]1CCCO[C@@H]1c1c(I)c2nc(Cl)nc(NCc3cccs3)c2n1C(F)F too.
6.52 to 7.52

And what about the compound CC#CCNc1nc(Cl)nc2c(I)c([C@H]3CC=CC[C@@H]3N)sc12 ?
≥ 7.52

Now the same for N[C@@H]1CCCC(F)(F)[C@H]1c1sc2c(NCc3cccs3)cc(Cl)nc2c1Cl
6.52 to 7.52

Next: N[C@@H]1CCCC[C@H]1c1cc2nc(Cl)cc(NCc3cccs3)c2s1
< 6.00

And for N[C@H]1[C@H](O)CCC[C@@H]1c1sc2c(NCc3cccs3)cc(Cl)nc2c1Cl ?
6.52 to 7.52

Next up: CC#CCNc1cc(Cl)nc2c(Br)c([C@H]3CCOC[C@@H]3N)sc12
6.00 to 6.52

Same question, N[C@@H]1CCC[C@H]1c1sc2c(NCc3ccccc3)cc(Cl)nc2c1Br this time
< 6.00

Lookup N[C@@H]1CC=CC[C@H]1c1sc2c(NCc3ccco3)nc(Cl)nc2c1Br
6.00 to 6.52

Same question, N[C@@H]1CC=CC[C@H]1c1sc2c(NCc3cccs3)nc(Cl)nc2c1I this time
6.52 to 7.52

Another: CC#CCNc1cc(Cl)nc2c(Br)c([C@@H]3CC=CC[C@H]3N)sc12
≥ 7.52

Further, for N[C@H]1CC=CC[C@@H]1c1sc2c(NCc3ccco3)cc(Cl)nc2c1Br ?
≥ 7.52

Lookup N[C@@H]1CCCCC[C@@H]1c1cc2nc(Cl)cc(NCc3cccs3)c2s1
< 6.00

How about N[C@@H]1CC=CC[C@H]1c1sc2c(NCc3ccco3)cc(Cl)nc2c1Br ?
6.52 to 7.52

Cool, now N[C@@H]1CCCCC1c1sc2c(NCc3cccs3)cc(Cl)nc2c1C(F)F.N[C@H]1CCCCC1c1sc2c(NCc3cccs3)cc(Cl)nc2c1C(F)F (mixture of isomers)
6.52 to 7.52

Another compound to check: Cc1c([C@@]2(F)CCCC[C@@H]2N)sc2c(NCc3ccco3)cc(Cl)nc12
6.52 to 7.52

What do you have for Cc1c([C@@H]2CC=CC[C@H]2N)n(C(F)F)c2c(NCc3ccco3)nc(Cl)nc12.Cc1c([C@H]2CC=CC[C@@H]2N)n(C(F)F)c2c(NCc3ccco3)nc(Cl)nc12 (mixture of isomers) ?
6.52 to 7.52

# repeat for N[C@@H]1CCC[C@H]1c1sc2c(NCc3ccccc3)cc(Cl)nc2c1Cl
6.00 to 6.52

Can you handle Cc1c([C@H]2CCCC[C@@H]2N)sc2c(NCc3ccco3)cc(Cl)nc12 next?
≥ 7.52

Check N[C@H]1COCC[C@@H]1c1sc2c(NCc3ccncc3)cc(Cl)nc2c1Br too.
6.52 to 7.52

Entry to check: N[C@H]1CCCC[C@]1(F)c1sc2c(NCc3ccco3)cc(Cl)nc2c1Cl
6.52 to 7.52

Follow-up entry: CC#CCNc1cc(Cl)nc2c(I)c([C@H]3CC=CC[C@@H]3N)sc12
≥ 7.52

Now this one: N[C@H]1CC=CC[C@@H]1c1sc2c(NCc3ccncc3)cc(Cl)nc2c1Br
≥ 7.52

Same question for N[C@@H]1CCCO[C@H]1c1sc2c(NCc3ccco3)cc(Cl)nc2c1Br please.
6.00 to 6.52

Now the compound CC#CCNc1cc(Cl)nc2c(C)c([C@H]3CC=CC[C@@H]3N)sc12
6.52 to 7.52

Can you check N[C@H]1CCCC[C@@H]1c1cc2nc(Cl)cc(NCc3cccs3)c2s1 next?
6.52 to 7.52

Then this compound: CN(Cc1cccs1)c1cc(Cl)nc2c(C#CCCCO)c([C@H]3CC=CC[C@@H]3N)sc12
6.52 to 7.52

====

System: Total ATXN3 (tATXN3) protein
Test: Endogenous Total ATXN3 (tATXN3) Protein Assay (MSD immunoassay of cell lysates)
Assay type: cell-based
Conditions: average IC50, total ATXN3 protein in cell lysate after 48 h with compound (Table 1)
property_label: IC50

IC50 for N[C@H]1COCC[C@@H]1c1sc2c(NCc3nccs3)cc(Cl)nc2c1Br ?
30 to 300 nM

Could you do the same for N[C@@H]1CCCO[C@@H]1c1sc2c(NCc3cccs3)cc(Cl)nc2c1Br , please?
300 to 1000 nM

Proceed to N[C@H]1CCCC(F)(F)[C@@H]1c1sc2c(NCc3ccco3)nc(Cl)nc2c1Br
≤ 30 nM

Same again, this time with Cc1c([C@H]2OCCC[C@@H]2N)sc2c(NCc3ccco3)cc(Cl)nc12
30 to 300 nM

====

System: Total ATXN3 (tATXN3) protein
Assay: Endogenous Total ATXN3 (tATXN3) Protein Assay (MSD immunoassay of cell lysates)
Assay type: cell-based
Settings: average IC50, total ATXN3 protein in cell lysate after 48 h with compound (Table 1)
property_label: IC50

Could you tell me which IC50 is on file for N[C@H]1CC=CC[C@@H]1c1sc2c(NCc3cccs3)nc(Cl)nc2c1Br ?
≤ 30 nM

Further, for N[C@@H]1CC=CC[C@H]1c1sc2c(NCc3cccs3)cc(Cl)nc2c1I.N[C@H]1CC=CC[C@@H]1c1sc2c(NCc3cccs3)cc(Cl)nc2c1I (mixture of isomers) [Compound 365] ?
30 to 300 nM

Same thing, different compound: N[C@H]1CCCC[C@@H]1c1sc2c(NCc3cccs3)cc(Cl)nc2c1Br
30 to 300 nM

Next: N[C@@H]1CCCO[C@H]1c1sc2c(NCc3ccccc3)cc(Cl)nc2c1Cl
> 1000 nM

Entry N[C@H]1CC=CC[C@@H]1c1c(I)c2nc(Cl)nc(NCc3ccco3)c2n1C(F)F please
30 to 300 nM

Can you check N[C@@H]1CCCC[C@@H]1c1sc2c(NCc3cccs3)cc(Cl)nc2c1Br next?
> 1000 nM

Same lookup for N[C@@H]1CC=CC[C@H]1c1sc2c(NCc3ccccc3)cc(Cl)nc2c1Br , please.
300 to 1000 nM

Item: N[C@H]1CCCO[C@@H]1c1sc2c(NCc3ccccc3)cc(Cl)nc2c1Br
≤ 30 nM

Now consider N[C@@H]1CCCCCC[C@H]1c1sc2c(NCc3cccs3)cc(Cl)nc2c1Br and answer again.
> 1000 nM

Same lookup for N[C@H]1CC=CC[C@@H]1c1sc2c(NCc3ccccc3)cc(Cl)nc2c1Br , please.
≤ 30 nM

Field entry: N[C@H]1CCCCC[C@H]1c1sc2c(NCc3cccs3)cc(Cl)nc2c1Br
300 to 1000 nM

Thanks! And CN(Cc1ccco1)c1cc(Cl)nc2c(C#CCCCO)c([C@@H]3CC=CC[C@H]3N)sc12 ?
30 to 300 nM

Please answer likewise for N[C@H]1CC=CC[C@@H]1c1sc2c(NCc3cccs3)cc(Cl)nc2c1C#CC[C@H](O)CO
≤ 30 nM

Now consider C/C=C\CNc1cc(Cl)nc2c(Cl)c([C@H]3CCCC[C@@H]3N)sc12 .
30 to 300 nM

What about this compound? Cc1c([C@H]2CCC[C@@H]2N)sc2c(NCc3ccco3)cc(Cl)nc12
30 to 300 nM

Follow-up entry: [2H]C1=C([2H])C([2H])([2H])[C@H](c2sc3c(NCc4ccco4)nc(Cl)nc3c2C)[C@@H](N)C1([2H])[2H]
≤ 30 nM

Same thing, different compound: CC#CCNc1cc(Cl)nc2c(C)c([C@H]3CCCC[C@@H]3N)sc12
30 to 300 nM

One more compound: N[C@H]1CCCO[C@@H]1c1sc2c(NCc3ccco3)cc(Cl)nc2c1Cl
≤ 30 nM

Now the same for Cc1c([C@H]2CCC[C@@H]2N)sc2c(NCc3cccs3)cc(Cl)nc12
30 to 300 nM

Repeat for the following compound: N[C@H]1COCC[C@@H]1c1sc2c(NCc3cccs3)cc(Cl)nc2c1Br
30 to 300 nM

Moving on to the next compound: N[C@H]1CC=CC[C@@H]1c1sc2c(NCc3ccco3)cc(Cl)nc2c1Cl
≤ 30 nM

Likewise for N[C@@H]1CCCCC[C@H]1c1sc2c(NCc3cccs3)cc(Cl)nc2c1Cl ?
> 1000 nM

Now consider N[C@H]1CCC[C@@H]1c1sc2c(NCc3ccco3)cc(Cl)nc2c1Br and answer again.
≤ 30 nM

Thanks! And N[C@H]1CC=CC[C@@H]1c1sc2c(NCc3ccccc3F)cc(Cl)nc2c1Br ?
30 to 300 nM

Again, but for N[C@@H]1CCC[C@@H]1c1cc2nc(Cl)cc(NCc3cccs3)c2s1
> 1000 nM

Another compound: Cc1c([C@@H]2CCCCC[C@H]2N)sc2c(NCc3cccs3)cc(Cl)nc12
> 1000 nM

Similarly, N[C@@H]1CC=CC[C@H]1c1sc2c(NCc3ccccc3F)cc(Cl)nc2c1Br ?
30 to 300 nM

Then CCc1c([C@H]2CCCCCC[C@@H]2N)sc2c(NCc3cccs3)cc(Cl)nc12 ?
> 1000 nM

Next entry: CC#Cc1c(C2[C@@H](N)CCCC2(F)F)sc2c(NCc3cccs3)cc(Cl)nc12.CC#Cc1c(C2[C@H](N)CCCC2(F)F)sc2c(NCc3cccs3)cc(Cl)nc12 (mixture of isomers)
≤ 30 nM

Note, next up: N[C@H]1CCCC(F)(F)[C@@H]1c1sc2c(NCc3cccs3)cc(Cl)nc2c1Cl
30 to 300 nM

What about C[C@@H]1C=C[C@H](C)[C@H](N)[C@H]1c1sc2c(NCc3ccco3)cc(Cl)nc2c1Cl ?
300 to 1000 nM

Request: N[C@@H]1CCC[C@@H]1c1sc2c(NCc3cccs3)cc(Cl)nc2c1Cl
> 1000 nM

Numbers sourced from patent US20250382305A1.
